experiment: Lipophilicity, logP of compound; type: physicochemical; conditions: octanol/water
outcomeMeasure: logP

{"compound": "Oc1ccc(/C=C/c2cc(O)c(O)c(O)c2)c(O)c1", "logP": 2.28}
{"compound": "OCCOc1ccc(/C=C/c2cc(OCCO)cc(OCCO)c2)cc1", "logP": 2.29}
{"compound": "COc1ccc(/C=C/c2cc(OC)cc(OC)c2)cc1 [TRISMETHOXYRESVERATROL]", "logP": 3.85}
{"compound": "COc1ccc(OC)c(-c2cc3ccc(OCc4ccccc4)cc3[nH]2)c1", "logP": 5.15}
{"compound": "COc1ccc(-c2cc3cc(OC)cc(OC)c3[nH]2)cc1", "logP": 2.93}
{"compound": "COc1ccc(OC)c(-c2cc3ccc(O)cc3[nH]2)c1", "logP": 2.66}

[a] COc1cc(OC)cc(-c2cc3ccc(O)cc3o2)c1
[b] CC(C)(C)C(=O)Oc1ccc(/C=C/c2cc(OC(=O)C(C)(C)C)cc(OC(=O)C(C)(C)C)c2)cc1
[c] Oc1ccc2cc(-c3cc(O)c(O)c(O)c3)oc2c1
[d] COc1ccc(-c2cc3cc(C)cc(C)c3[nH]2)cc1
Arrange the 4 entries by logP so the values rise. Would you mind listing the labels in the order asked for?
c, a, d, b

###

system: HCT-116; experiment: Cytotoxicity against HCT-116 cell expressing KRAS assessed as growth inhibition by measuring synthetic lethality at 2 uM relative to control; format: functional; conditions: Homo sapiens
Below, each entry is listed with its recorded inhibition at 2 µM.
The answer is to be given in %; state only the numeric part.

// known answers, use as guide
{"compoundString": "COc1cc(-c2cc3ccc(O)cc3o2)cc(OC)c1OC", "targetOfAssay": "HCT-116", "inhibition at 2 µM, %": 6.3}
{"compoundString": "COc1ccc(OC)c(-c2cc3ccc(O)cc3[nH]2)c1", "targetOfAssay": "HCT-116", "inhibition at 2 µM, %": 0}
{"compoundString": "Oc1ccc2cc(-c3cc(O)c(O)c(O)c3)oc2c1", "targetOfAssay": "HCT-116", "inhibition at 2 µM, %": 33}

Next, consider the following compound.
Tell me the measured inhibition at 2 µM of COc1ccc(OC)c(-c2cc3ccc(OCc4ccccc4)cc3[nH]2)c1 , please.
45.6

###

Below, each entry is listed with its recorded pIC50.
tested on: HT-29; assay: Cytotoxicity against human HT-29 cells incubated for 24 hrs by MTT assay; type: functional, cell-based; conditions: HT-29, 24 h
Please report pIC50 as the negative decimal logarithm of the molar concentration, giving only the number.

// known answers, use as guide
{"compoundString": "Oc1cc(O)cc(-c2cc3ccc(O)cc3o2)c1", "observedValue": 4.14}
{"compoundString": "Oc1ccc(/C=C/c2cc(O)c(O)c(O)c2)c(O)c1", "observedValue": 4.11}

Next, consider the following compound.
Tell me the measured pIC50 of COc1ccc(/C=C/c2cc(OC)c(OC)c(OC)c2)c(OC)c1 , please.
4.92

###

tested on: SNU-C1; experiment: Cytotoxicity against human SNU-C1 cell expressing KRAS assessed as growth inhibition by measuring synthetic lethality at 2 uM relative to control; format: functional
outcomeMeasure: inhibition at 2 µM (%)
The answer is to be given in %; state only the numeric part.

{"compoundString": "COc1cc(-c2cc3ccc(O)cc3o2)cc(OC)c1OC", "inhibition at 2 µM / %": 8.7}

Tell me the measured inhibition at 2 µM of COc1ccc(OC)c(-c2cc3ccc(O)cc3[nH]2)c1 , please.
0

Tell me the measured inhibition at 2 µM of Oc1ccc2cc(-c3cc(O)c(O)c(O)c3)oc2c1 , please.
3.1

Tell me the measured inhibition at 2 µM of COc1ccc(OC)c(-c2cc3ccc(OCc4ccccc4)cc3[nH]2)c1 , please.
13.9

###

tested on: HCT cell line; assay: Cytotoxicity against HCT cell expressing KRAS assessed as growth inhibition by measuring synthetic lethality at 20 uM relative to control; format: functional; conditions: Homo sapiens
outcomeMeasure: inhibition at 20 µM (%)
The answer is to be given in %; state only the numeric part.

// known answers, use as guide
{"compoundString": "COc1ccc(OC)c(-c2cc3ccc(OCc4ccccc4)cc3[nH]2)c1", "outcomeMeasure": "inhibition at 20 µM", "unitAbbrev": "%", "observedValue": 48.9}
{"compoundString": "COc1ccc(OC)c(-c2cc3ccc(O)cc3[nH]2)c1", "outcomeMeasure": "inhibition at 20 µM", "unitAbbrev": "%", "observedValue": 6.3}
{"compoundString": "COc1cc(-c2cc3ccc(O)cc3o2)cc(OC)c1OC", "outcomeMeasure": "inhibition at 20 µM", "unitAbbrev": "%", "observedValue": 0}

Tell me the measured inhibition at 20 µM of Oc1ccc2cc(-c3cc(O)c(O)c(O)c3)oc2c1 , please.
0

Origin of measurements: ChEMBL document CHEMBL5352462
